test: chemical genetic growth profiling, strain panel (AID 1159580);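 further: tested at 20 µM; growth read once vehicle control cultures reached saturation at 30 °C; 1 = growth at the plate median or of vehicle wells; lower values mean less growth of the strain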; conditions: S. cerevisiae deletion strains, growth OD, locus YCL011C, strain gbp2, hits give low values
The whole screen tested about 5,500 compounds, of which about 2,000 (36%) were called active. Roughly 18% stayed inconclusive and do not appear here. Some of the results follow.
metric-name: normalized growth
Please reply with the number alone, leaving off any unit.

Reported normalized growth for C[N+]1(C)C[C@H](O)[C@H](C(=O)[O-])C1 : what is it? 1.02

Reported normalized growth for COc1ccc(-c2cc(=O)c3c(O)cc(O)c(-c4cc(-c5cc(=O)c6c(O)cc(O)cc6o5)ccc4OC)c3o2)cc1 : what is it? 1

Reported normalized growth for COC1CC(OC2CCC3(C)C(CCC4C3CCC3(C)C(C5=CC(=O)OC5)C(OC(C)=O)CC43O)C2)OC(C)C1O (stereo unspecified) : what is it? 1.02

Reported normalized growth for COC(=O)CC1C(C)(C)C(OC(C)=O)[C@@H]2[C@@H](OC(C)=O)[C@]34O[C@@]2(O)[C@]1(C)C3CC[C@]1(C)C4=CC(=O)O[C@H]1c1ccoc1 (stereo partly specified) : what is it? 1.01

Reported normalized growth for C=CCSSSCC=C : what is it? 0.984

Reported normalized growth for COc1cc(C(=O)N2CCOCC2)cc(OC)c1OC : what is it? 0.993

Reported normalized growth for COc1ccc(-c2cc(=O)c3c(O)c(OC)c(OC)c(OC)c3o2)cc1OC : what is it? 0.989

Reported normalized growth for O=C(CCCN1CCN(c2ccccn2)CC1)c1ccc(F)cc1 : what is it? 0.971

Reported normalized growth for COc1ccc(-c2cc(=O)c3c(O)c(OC)c(O[C@H]4O[C@H](CO[C@@H]5O[C@@H](C)[C@H](O)[C@@H](O)[C@H]5O)[C@@H](O)[C@H](O)[C@H]4O)cc3o2)cc1 : what is it? 0.991

Reported normalized growth for COC1=CC(C)[C@@H]2C[C@H]3OC(=O)C[C@H]4C(C)=C(OC)C(=O)C([C@@]34C)[C@@]2(C)C1=O (stereo partly specified) : what is it? 0.977

Reported normalized growth for O=C1CC2(CCCC2)CC(=O)N1CCCCN1CCN(c2ncccn2)CC1 : what is it? 1

These entries and their values trace back to PubChem BioAssay AID1159580.
